- Tested on: SNB-75
- TEST_METHOD_NOTES: NCI tumour cell line growth inhibition, 48 h
Activity calls are given as the source filed them. Rule as the data show it: active = GI50 up to about 1.1 µM and inactive = higher. Where a SMILES comes first, the peptide text is derived from it. The star is where a group is joined. Cbz = O=C(OCc1ccccc1)*
// reported GI50 for each item listed

1. O=C1C2CCCCC2C(=O)N1n1c(Cc2ccccc2)n[nH]c1=O (stereo unspecified) = > 100 µM (inactive)

Next up:
Q: Supply reported GI50 belonging to this compound: CCOC(=O)CCC(NC(=O)CNC(=O)CNC(=O)C(CCC(=O)OCC)NC(=O)C(CCC(=O)OCC)NC(=O)C(CCC(=O)OCC)NC(=O)OCc1ccccc1)C(=O)NC(CCC(=O)OCC)C(=O)NC(CCC(=O)OCC)C(=O)OCC (stereo unspecified) (Cbz-E(OEt)E(OEt)E(OEt)GGE(OEt)E(OEt)E(OEt)-OEt; configuration not given here)
Ans: > 75 µM (inactive)

Source: ChEMBL document CHEMBL1201862
